Listed compounds paired with reported IC50
target: Sodium- and chloride-dependent GABA transporter 1 (Mus musculus, UniProt P31648); test: Inhibition of mouse GAT1 expressed in HEK293 cells assessed as reduction in [3H]GABA uptake after 3 mins by scintillation counting method

>  <smilesRepresentation>
O=C(NC1CCN(Cc2ccccc2)CC1)c1ccnc(Cl)c1

>  <tgt>
Sodium- and chloride-dependent GABA transporter 1 (Mus musculus, UniProt P31648)

>  <IC50>
> 1000 µM

$$$$
>  <smilesRepresentation>
COc1cccc(CN2CCC(NC(=O)c3cccs3)CC2)c1

>  <tgt>
Sodium- and chloride-dependent GABA transporter 1 (Mus musculus, UniProt P31648)

>  <IC50>
> 400 µM

$$$$
>  <smilesRepresentation>
O=C(NC1CCN(Cc2cccc(F)c2)CC1)c1ccc(Cl)cc1Cl

>  <tgt>
Sodium- and chloride-dependent GABA transporter 1 (Mus musculus, UniProt P31648)

>  <IC50>
> 1000 µM

$$$$
>  <smilesRepresentation>
COc1cc(CN2CCC(NC(=O)c3ccc(Cl)cc3Cl)CC2)cc(OC)c1

>  <tgt>
Sodium- and chloride-dependent GABA transporter 1 (Mus musculus, UniProt P31648)

>  <IC50>
> 1000 µM

$$$$
>  <smilesRepresentation>
O=C(NC1CCN(Cc2ccccc2)CC1)c1cnccc1Cl

>  <tgt>
Sodium- and chloride-dependent GABA transporter 1 (Mus musculus, UniProt P31648)

>  <IC50>
> 1000 µM

$$$$
>  <smilesRepresentation>
O=C(NC1CCN(Cc2c[nH]c3ccccc23)CC1)c1ccc(Cl)nc1Cl

>  <tgt>
Sodium- and chloride-dependent GABA transporter 1 (Mus musculus, UniProt P31648)

>  <IC50>
> 300 µM

$$$$
>  <smilesRepresentation>
O=C(NC1CCN(Cc2cc(Cl)cc(Cl)c2)CC1)c1ccc(Cl)cc1Cl

>  <tgt>
Sodium- and chloride-dependent GABA transporter 1 (Mus musculus, UniProt P31648)

>  <IC50>
> 300 µM

$$$$
>  <smilesRepresentation>
O=C(NC1CCN(Cc2cccc(Cl)c2)CC1)c1ccc(Cl)cc1Cl

>  <tgt>
Sodium- and chloride-dependent GABA transporter 1 (Mus musculus, UniProt P31648)

>  <IC50>
> 300 µM

$$$$
>  <smilesRepresentation>
O=C(NC1CCN(Cc2ccccc2)CC1)c1ccc(Cl)cc1

>  <tgt>
Sodium- and chloride-dependent GABA transporter 1 (Mus musculus, UniProt P31648)

>  <IC50>
> 1000 µM

$$$$
>  <smilesRepresentation>
CCOc1cccc(CN2CCC(NC(=O)c3ccc(Cl)nc3Cl)CC2)c1

>  <tgt>
Sodium- and chloride-dependent GABA transporter 1 (Mus musculus, UniProt P31648)

>  <IC50>
> 300 µM

$$$$
>  <smilesRepresentation>
O=C(NC1CCN(Cc2ccc(-c3ccccc3)cc2)CC1)c1ccc(Cl)nc1Cl

>  <tgt>
Sodium- and chloride-dependent GABA transporter 1 (Mus musculus, UniProt P31648)

>  <IC50>
> 300 µM

$$$$
>  <smilesRepresentation>
O=C(NC1CCN(Cc2ccccc2)CC1)c1ccccc1Cl

>  <tgt>
Sodium- and chloride-dependent GABA transporter 1 (Mus musculus, UniProt P31648)

>  <IC50>
> 400 µM

$$$$
>  <smilesRepresentation>
Cc1cccc(CN2CCC(NC(=O)c3ccc(Cl)cc3Cl)CC2)c1

>  <tgt>
Sodium- and chloride-dependent GABA transporter 1 (Mus musculus, UniProt P31648)

>  <IC50>
> 300 µM

$$$$
>  <smilesRepresentation>
O=C(NC1CCN(Cc2cccc(OCCO)c2)CC1)c1ccc(Cl)nc1Cl

>  <tgt>
Sodium- and chloride-dependent GABA transporter 1 (Mus musculus, UniProt P31648)

>  <IC50>
> 300 µM

$$$$
>  <smilesRepresentation>
COC(=O)c1cccc(CN2CCC(NC(=O)c3ccc(Cl)nc3Cl)CC2)c1

>  <tgt>
Sodium- and chloride-dependent GABA transporter 1 (Mus musculus, UniProt P31648)

>  <IC50>
> 300 µM

$$$$
>  <smilesRepresentation>
COc1cccc(CN2CCC(NC(=O)c3cccnc3Cl)CC2)c1

>  <tgt>
Sodium- and chloride-dependent GABA transporter 1 (Mus musculus, UniProt P31648)

>  <IC50>
> 1000 µM

$$$$
>  <smilesRepresentation>
O=C(NC1CCN(Cc2cccc(C(F)(F)F)c2)CC1)c1ccc(Cl)cc1Cl

>  <tgt>
Sodium- and chloride-dependent GABA transporter 1 (Mus musculus, UniProt P31648)

>  <IC50>
> 1000 µM

$$$$
>  <smilesRepresentation>
Cc1cc(C)cc(CN2CCC(NC(=O)c3ccc(Cl)cc3Cl)CC2)c1

>  <tgt>
Sodium- and chloride-dependent GABA transporter 1 (Mus musculus, UniProt P31648)

>  <IC50>
> 300 µM

$$$$
>  <smilesRepresentation>
O=C(NC1CCN(Cc2cccc(O)c2)CC1)c1ccc(Cl)nc1Cl

>  <tgt>
Sodium- and chloride-dependent GABA transporter 1 (Mus musculus, UniProt P31648)

>  <IC50>
> 300 µM

$$$$
>  <smilesRepresentation>
O=C(NC1CCN(Cc2ccccc2)CC1)c1ccc(Cl)nc1Cl

>  <tgt>
Sodium- and chloride-dependent GABA transporter 1 (Mus musculus, UniProt P31648)

>  <IC50>
> 400 µM

$$$$
>  <smilesRepresentation>
O=C(NC1CCN(Cc2cccc(OC(F)(F)F)c2)CC1)c1ccc(Cl)cc1Cl

>  <tgt>
Sodium- and chloride-dependent GABA transporter 1 (Mus musculus, UniProt P31648)

>  <IC50>
> 1000 µM

$$$$
>  <smilesRepresentation>
O=C(NC1CCN(Cc2ccc(OC(F)(F)F)cc2)CC1)c1ccc(Cl)cc1Cl

>  <tgt>
Sodium- and chloride-dependent GABA transporter 1 (Mus musculus, UniProt P31648)

>  <IC50>
> 1000 µM

$$$$
>  <smilesRepresentation>
O=C(NC1CCN(Cc2ccccc2)CC1)c1c(Cl)cc(Cl)cc1Cl

>  <tgt>
Sodium- and chloride-dependent GABA transporter 1 (Mus musculus, UniProt P31648)

>  <IC50>
> 1000 µM

$$$$
>  <smilesRepresentation>
COc1cccc(CN2CCC(NC(=O)c3ccc(Cl)nc3Cl)CC2)c1

>  <tgt>
Sodium- and chloride-dependent GABA transporter 1 (Mus musculus, UniProt P31648)

>  <IC50>
> 300 µM

$$$$
>  <smilesRepresentation>
O=C(NC1CCN(Cc2ccccc2)CC1)c1ccc(Cl)cc1Cl

>  <tgt>
Sodium- and chloride-dependent GABA transporter 1 (Mus musculus, UniProt P31648)

>  <IC50>
> 200 µM

$$$$
>  <smilesRepresentation>
O=C(NC1CCN(Cc2ccccc2)CC1)c1cccnc1Cl

>  <tgt>
Sodium- and chloride-dependent GABA transporter 1 (Mus musculus, UniProt P31648)

>  <IC50>
> 1000 µM

$$$$
>  <smilesRepresentation>
COc1cccc(CN2CCC(NC(=O)c3ccncc3)CC2)c1

>  <tgt>
Sodium- and chloride-dependent GABA transporter 1 (Mus musculus, UniProt P31648)

>  <IC50>
> 1000 µM

$$$$
